- study_target: LXRβ (Homo sapiens (Human), UniProt P55055)
- Sequence (P55055 whole entry, the tested form may be a part): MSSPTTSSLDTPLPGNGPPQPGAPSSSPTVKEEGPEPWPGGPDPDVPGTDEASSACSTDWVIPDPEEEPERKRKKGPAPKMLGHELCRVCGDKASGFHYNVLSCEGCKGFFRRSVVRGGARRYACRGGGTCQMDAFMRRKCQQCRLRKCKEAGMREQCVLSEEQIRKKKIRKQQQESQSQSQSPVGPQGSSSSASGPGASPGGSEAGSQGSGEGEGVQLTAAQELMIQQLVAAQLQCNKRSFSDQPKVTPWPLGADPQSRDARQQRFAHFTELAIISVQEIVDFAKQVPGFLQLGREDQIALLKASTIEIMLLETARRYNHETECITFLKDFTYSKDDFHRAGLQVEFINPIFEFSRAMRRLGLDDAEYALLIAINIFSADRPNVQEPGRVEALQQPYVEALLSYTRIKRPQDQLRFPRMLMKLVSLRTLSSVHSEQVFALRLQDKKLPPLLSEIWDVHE
- experiment_summary: In vitro assay LXRβ: PathHunter NHR CHO cells, LXRβ / Steroid Receptor Co-activator Peptide enzyme fragment complementation
- Assay type: cell-based
- applied_conditions: PathHunter NHR CHO cells, full-length human LXRβ and SRCP, chemiluminescent signal; read-out: LXRβ PPI
pEC50: −log10 of the molar value.
experimental_readout: pEC50

>>> print(df.to_string())
                         chemical_structure  observed_measurement
0  C[C@H](CCC(=O)N1CCC(C)(O)CC1)[C@H]1CC[C@H]2[C@@H]3CC=C4C[C@@H](O)CC[C@]4(C)[C@H]3CC[C@]12C          6.00 to 6.60
1  C[C@H](CCC(=O)N1CCC(NS(C)(=O)=O)CC1)[C@H]1CC[C@H]2[C@@H]3CC=C4C[C@@H](O)CC[C@]4(C)[C@H]3CC[C@]12C                < 5.00

// next item, pEC50 requested
Ask: What does the record list as pEC50 for `C[C@H](CCC(=O)N1CCN(c2ncccn2)CC1)[C@H]1CC[C@H]2[C@@H]3CC=C4C[C@@H](O)CC[C@]4(C)[C@H]3CC[C@]12C` ?
Result: < 5.00
